Reference for the values: paper PMC8971402

# measurement description: Pharmacokinetics of plasmatic oxytocin after intravenous, nasal spray or nebulizer administration
# condition summary: Condition IV; Sample 4; individual participants (Fig6A source data)
observed property: Concentration (plasma oxytocin)

chemical string: CC[C@H](C)[C@@H]1NC(=O)[C@H](Cc2ccc(O)cc2)NC(=O)[C@@H](N)CSSC[C@@H](C(=O)N2CCC[C@H]2C(=O)N[C@@H](CC(C)C)C(=O)NCC(N)=O)NC(=O)[C@H](CC(N)=O)NC(=O)[C@H](CCC(N)=O)NC1=O
readout value: 0.0539 ng/mL

---

# measurement description: Pharmacokinetics of plasmatic oxytocin after intravenous, nasal spray or nebulizer administration
# condition summary: human, in vivo, iv; SEM

chemical string: CC[C@H](C)[C@@H]1NC(=O)[C@H](Cc2ccc(O)cc2)NC(=O)[C@@H](N)CSSC[C@@H](C(=O)N2CCC[C@H]2C(=O)N[C@@H](CC(C)C)C(=O)NCC(N)=O)NC(=O)[C@H](CC(N)=O)NC(=O)[C@H](CCC(N)=O)NC1=O
Cmax (ng/mL): 0.0643
